Biological target: PI3K-γ (Homo sapiens, UniProt P48736)
Sequence (P48736 whole entry, species assumed): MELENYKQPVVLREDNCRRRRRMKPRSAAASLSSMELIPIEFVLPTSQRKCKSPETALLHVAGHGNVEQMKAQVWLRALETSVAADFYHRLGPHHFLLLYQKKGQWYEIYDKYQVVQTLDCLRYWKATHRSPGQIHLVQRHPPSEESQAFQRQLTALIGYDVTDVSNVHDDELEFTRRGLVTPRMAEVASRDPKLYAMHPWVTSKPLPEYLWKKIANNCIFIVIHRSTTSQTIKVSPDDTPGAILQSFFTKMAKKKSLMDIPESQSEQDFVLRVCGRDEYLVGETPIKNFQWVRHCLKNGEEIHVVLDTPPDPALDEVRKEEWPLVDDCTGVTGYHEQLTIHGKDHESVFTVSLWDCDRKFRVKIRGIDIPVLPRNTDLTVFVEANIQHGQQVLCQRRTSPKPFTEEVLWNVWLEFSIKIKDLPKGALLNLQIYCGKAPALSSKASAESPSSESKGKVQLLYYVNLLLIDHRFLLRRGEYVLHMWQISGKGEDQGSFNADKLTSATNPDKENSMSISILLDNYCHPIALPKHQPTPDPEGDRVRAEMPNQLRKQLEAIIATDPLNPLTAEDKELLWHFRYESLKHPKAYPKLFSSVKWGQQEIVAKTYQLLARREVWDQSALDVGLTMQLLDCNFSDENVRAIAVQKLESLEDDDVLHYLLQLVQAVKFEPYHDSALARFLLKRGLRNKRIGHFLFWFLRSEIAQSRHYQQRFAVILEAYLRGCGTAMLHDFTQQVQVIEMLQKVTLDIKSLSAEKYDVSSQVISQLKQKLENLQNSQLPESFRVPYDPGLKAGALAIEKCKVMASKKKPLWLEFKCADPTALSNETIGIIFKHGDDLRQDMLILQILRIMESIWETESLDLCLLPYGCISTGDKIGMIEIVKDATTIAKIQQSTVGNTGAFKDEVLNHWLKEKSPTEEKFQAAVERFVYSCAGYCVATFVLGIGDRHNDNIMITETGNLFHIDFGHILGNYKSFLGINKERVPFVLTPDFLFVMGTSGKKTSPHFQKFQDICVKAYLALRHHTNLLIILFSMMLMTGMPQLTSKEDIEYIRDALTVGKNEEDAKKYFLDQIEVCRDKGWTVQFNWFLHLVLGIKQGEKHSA
Assay: PI3K-gamma fluorescence polarization assay
Conditions: read-out: IC50 PI3Kγ
Measured Quantity: IC50
Quote the value and follow it with the unit of measurement.

[[record]]
compound = "CC(=O)NC1CCN(c2nc(-c3ccc(NC(=O)Nc4ccncc4)cc3)nc(N3CCOCC3)n2)CC1 [Example 658]"
target_or_system = "PI3K-γ (Homo sapiens, UniProt P48736)"
measured_quantity = "IC50"
observed = "0.265 µM"


Assay PI3K-γ (Homo sapiens, UniProt P48736), sample COC(=O)c1ccc(NC(=O)Nc2ccc(-c3nc(N4CCCCC4)nc(N4CCOCC4)n3)cc2)cc1 [Example 591] , IC50 read: 0.726 µM

Assay PI3K-γ (Homo sapiens, UniProt P48736), sample CC(C)Nc1nc(-c2ccc(NC(=O)Nc3ccc(OCCN4CCCC4)cc3)cc2)nc(N2C3CCC2COC3)n1 [Example 384] , IC50 read: 5.38 µM

Assay PI3K-γ (Homo sapiens, UniProt P48736), sample CN1CCN(C(=O)c2ccc(NC(=O)Nc3ccc(-c4nc(N5CCC5)nc(N5CCOCC5)n4)cc3)cc2)CC1 [Example 196] , IC50 read: 0.055 µM

----------
Target: Human mTOR (FLAG-TOR) (Homo sapiens)
Sequence (P42345 1360-2549 limits assumed): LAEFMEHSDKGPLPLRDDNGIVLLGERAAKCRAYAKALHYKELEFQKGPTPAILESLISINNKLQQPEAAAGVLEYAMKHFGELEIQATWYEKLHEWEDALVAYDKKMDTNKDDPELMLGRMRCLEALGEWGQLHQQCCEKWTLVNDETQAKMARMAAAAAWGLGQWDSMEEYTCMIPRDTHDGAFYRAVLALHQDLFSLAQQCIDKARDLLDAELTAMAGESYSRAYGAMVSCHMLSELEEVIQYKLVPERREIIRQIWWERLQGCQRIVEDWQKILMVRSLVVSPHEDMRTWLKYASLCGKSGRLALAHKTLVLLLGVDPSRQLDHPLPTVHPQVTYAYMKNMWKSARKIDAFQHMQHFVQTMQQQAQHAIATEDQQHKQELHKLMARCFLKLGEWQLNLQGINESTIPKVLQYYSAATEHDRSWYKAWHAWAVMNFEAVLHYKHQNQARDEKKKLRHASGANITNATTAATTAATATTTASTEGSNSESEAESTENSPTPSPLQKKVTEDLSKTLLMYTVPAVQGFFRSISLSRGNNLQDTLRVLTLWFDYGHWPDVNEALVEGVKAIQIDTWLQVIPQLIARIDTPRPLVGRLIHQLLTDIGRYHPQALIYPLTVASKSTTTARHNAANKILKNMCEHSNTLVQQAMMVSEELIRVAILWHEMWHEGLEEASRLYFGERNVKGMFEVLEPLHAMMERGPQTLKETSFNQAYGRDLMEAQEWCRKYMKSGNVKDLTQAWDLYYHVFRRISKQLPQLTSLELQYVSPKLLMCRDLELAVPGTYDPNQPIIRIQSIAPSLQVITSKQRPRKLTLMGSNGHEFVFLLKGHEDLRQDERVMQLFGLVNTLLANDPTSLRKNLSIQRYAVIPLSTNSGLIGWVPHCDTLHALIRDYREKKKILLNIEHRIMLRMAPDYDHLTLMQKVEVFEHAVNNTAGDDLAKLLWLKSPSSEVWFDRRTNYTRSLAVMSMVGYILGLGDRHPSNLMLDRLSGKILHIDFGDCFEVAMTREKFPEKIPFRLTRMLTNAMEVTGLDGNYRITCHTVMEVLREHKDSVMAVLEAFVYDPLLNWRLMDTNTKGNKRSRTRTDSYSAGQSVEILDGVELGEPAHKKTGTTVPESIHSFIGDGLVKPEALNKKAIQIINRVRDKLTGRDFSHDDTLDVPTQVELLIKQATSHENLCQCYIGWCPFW
Assay: mTOR kinase assay (DELFIA format, purified enzyme)
Format: biochemical
Conditions: read-out: IC50 mTOR
Measured Quantity: IC50 (nM)
Write down the numeric answer in nM and omit the unit.

As a guide, the following entries are already answered.
[[record]]
query_smiles = "O=C(Cc1ccc(-c2nc(N3CCOCC3)nc(N3CCOCC3)n2)cc1)Nc1cccnc1"
target_or_system = "Human mTOR (FLAG-TOR) (Homo sapiens)"
observed = 14000

[[record]]
query_smiles = "c1cc(-c2nc(N3CCOCC3)nc(N3CCOCC3)n2)ccc1NC1=NCCN1"
target_or_system = "Human mTOR (FLAG-TOR) (Homo sapiens)"
observed = 48

[[record]]
query_smiles = "CC(C)Nc1nc(-c2ccc(NC(=O)Nc3ccc(N4CCN(C)CC4)cc3)cc2)nc(N2CC3CCC(C2)O3)n1"
target_or_system = "Human mTOR (FLAG-TOR) (Homo sapiens)"
observed = 3.2


Alright, here's another molecule for you.
Assay Human mTOR (FLAG-TOR) (Homo sapiens), sample O=C(Nc1ccc(C(=O)N2CCC(N3CCCCC3)CC2)cc1)Nc1ccc(-c2nc(N3CCOCC3)nc(N3C4COCC3COC4)n2)cc1 , IC50 read: 0.265

----------
Molecular target: Human mTOR (FLAG-TOR) (Homo sapiens)
Assay: mTOR kinase assay (DELFIA format, purified enzyme)
Type: biochemical
Settings: read-out: IC50 mTOR
Listing of entries alongside the reported pIC50.
// pIC50: -log10(molar conc.)

As a guide, the following entries are already answered.
[[record]]
compound = "O=C(Nc1ccc(-c2nc(OCC3CCNCC3)nc(N3CC4CCC(C3)O4)n2)cc1)Nc1cccnc1 [Example 183]"
target_or_system = "Human mTOR (FLAG-TOR) (Homo sapiens)"
observed = 7.85

[[record]]
compound = "CN(C)C(=O)N1CCN(c2nc(-c3ccc(NC(=O)Nc4ccc(C(=O)O)cc4)cc3)nc(N3CCOCC3)n2)CC1 [Example 646]"
target_or_system = "Human mTOR (FLAG-TOR) (Homo sapiens)"
observed = 8.22

[[record]]
compound = "O=C(Nc1ccc(C(=O)O)cc1)Nc1ccc(-c2nc(-c3ccccc3)nc(N3CCOCC3)n2)cc1 [Example 541]"
target_or_system = "Human mTOR (FLAG-TOR) (Homo sapiens)"
observed = 7.77


Alright, here's another compound for you.
Input CC(O)c1ccc(NC(=O)Nc2ccc(-c3nc(N4CCOCC4)nc(N4C[C@H]5C[C@@H]4CN5C(=O)OC(C)(C)C)n3)cc2)cc1 (stereo partly shown) [Example 302] . Output pIC50: 7.44
